Biological target: pooled human IgG (human IgG1, 2, 3 and 4)
metric: Enzyme Activity Endpoint Assay (purified): Fab′2 (ng/µL)
Kindly provide the numeric value in ng/µL only, without the unit symbol.

// Enzyme Activity Endpoint Assay (purified): Fab′2 lookup, protein = PRT-415 (protein) MTITSVWTKGVTPPTPEDFRYNNEDVLHAPYVANQGWYDITKTFDGKDNLLCGAATAGNMLHWWFDQNKEEIERYLKKHPEKQKIIFNNQELFDVKAAIDTKDSQTNSKLFNYFLDKAFPNLSARQLGVMPDLVLDMFINGYYLNLGKTQSTDVNRPYQDKDKRGGIFDAVFTRGDQTTLLTARHDLKNKGLNEISDLIKQELTEGKALALSHTYANVRINHVINLWGADFDAEGNLIAIYVTDSDANASIGMKKYFVGVNANGKVAISAKKIEGDNIGAQVLGLFTLSTGQDIWQKLS , result: 46
